Attribution: patent US20240043542A1

Biological target: T1, cynomolgus monkey B7-H4 on the cell surface (cynomolgus monkey, UniProt Q7Z7D3 25-282 (human entry))
T1 construct: full-length, on transfected HEK293T cells
T1 chain: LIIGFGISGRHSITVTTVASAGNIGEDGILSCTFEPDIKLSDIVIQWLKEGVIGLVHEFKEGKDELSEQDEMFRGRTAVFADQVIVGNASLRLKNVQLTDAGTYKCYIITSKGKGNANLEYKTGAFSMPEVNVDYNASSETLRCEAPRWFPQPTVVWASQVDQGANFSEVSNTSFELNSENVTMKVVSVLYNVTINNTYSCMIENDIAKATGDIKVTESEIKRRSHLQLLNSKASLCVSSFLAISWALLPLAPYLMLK
Experiment: flow cytometry, transfected 293 cells
Cut-off 5 nM on EC50: below means rule met, at or above means rule not met.

Determine if B7-H4 antibody 15461 (antibody, human IgG1, kappa, V domains shown, human IgG1/kappa) VH: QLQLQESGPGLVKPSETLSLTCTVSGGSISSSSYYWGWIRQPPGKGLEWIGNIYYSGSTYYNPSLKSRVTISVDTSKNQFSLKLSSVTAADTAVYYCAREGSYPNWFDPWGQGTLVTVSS VL: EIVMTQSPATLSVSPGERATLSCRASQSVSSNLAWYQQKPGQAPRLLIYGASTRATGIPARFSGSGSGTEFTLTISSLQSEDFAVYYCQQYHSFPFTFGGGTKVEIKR shows EC50 strictly lower than 5 nM.
rule not met

Repeat for the following binder: B7-H4 antibody 20500 (antibody, human IgG1, kappa, V domains shown, human IgG1/kappa) VH: QLQLQESGPGLVKPSETLSLTCTVSGGSIKSGSHYWGWIRQPPGKGLEWIGNIYYSGSTYYNPSLRSRVTISVDTSKNQFSLKLSSVTAADTAVYYCAREGSYPNWFDPWGQGTLVTVSS VL: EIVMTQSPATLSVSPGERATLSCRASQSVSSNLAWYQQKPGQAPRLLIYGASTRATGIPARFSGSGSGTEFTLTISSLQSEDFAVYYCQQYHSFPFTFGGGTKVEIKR
rule met

Repeat for the following binder: B7-H4 antibody 20501 (antibody, human IgG1, kappa, V domains shown, human IgG1/kappa) VH: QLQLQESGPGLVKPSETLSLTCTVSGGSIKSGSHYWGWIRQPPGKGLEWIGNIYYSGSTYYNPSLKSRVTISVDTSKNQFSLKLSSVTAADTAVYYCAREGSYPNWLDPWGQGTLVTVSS VL: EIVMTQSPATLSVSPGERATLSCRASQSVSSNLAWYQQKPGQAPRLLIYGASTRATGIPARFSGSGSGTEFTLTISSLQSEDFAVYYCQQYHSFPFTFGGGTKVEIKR
rule met

Repeat for the following binder: B7-H4 antibody 20496 (antibody, human IgG1, kappa, V domains shown, human IgG1/kappa) VH: QLQLQESGPGLVKPSETLSLTCTVSGGSISSSVYYWSWIRQPPGKGLEWIGSILVSGSTYYNPSLKSRVTISVDTSKNQFSLKLSSVTAADTAVYYCARAVSFLDVWGQGTMVIVSS VL: DIQMTQSPSSLSASVGDRVTITCRASQSISSYLNWYQQKPGKAPKLLIYGASSLQSGVPSRFSGSGSGTDFTLTISSLQPEDFATYYCQQSYDPPWTFGGGTKVEIKR
rule not met
